# Assay Name: Pharmacokinetic studies in rats (LPV plasma levels by LC-MS/MS)
# Assay type: in vivo
# Condition Set: male, Sprague-Dawley, rat, plasma, iv; rats, 10 mg/kg LPV

Smiles Structure: Cc1cccc(C)c1OCC(=O)N[C@@H](Cc1ccccc1)[C@@H](O)C[C@H](Cc1ccccc1)NC(=O)[C@H](C(C)C)N1CCCNC1=O
half-life [h]: 1.2

----------
# Assay Name: Pharmacokinetic studies in rats (LPV plasma levels by LC-MS/MS)
# Assay type: in vivo
# Condition Set: male, Sprague-Dawley, rat, plasma; rats, oral, 10 mg/kg LPV

Smiles Structure: Cc1cccc(C)c1OCC(=O)N[C@@H](Cc1ccccc1)[C@@H](O)C[C@H](Cc1ccccc1)NC(=O)[C@H](C(C)C)N1CCCNC1=O
Unit Label: h
half-life: 4.8

----------
# Assay Name: Pharmacokinetic studies in rats (LPV plasma levels by LC-MS/MS)
# Type: in vivo
# Condition Set: male, Sprague-Dawley, rat, plasma, iv; rats, i.v., 10 mg/kg LPV; read-out: Cmax (extrapolated plasma concentration at T0)
Readout Type: Cmax (ng/mL)

Compound: Cc1cccc(C)c1OCC(=O)N[C@@H](Cc1ccccc1)[C@@H](O)C[C@H](Cc1ccccc1)NC(=O)[C@H](C(C)C)N1CCCNC1=O [LPV]
Unit Label: ng/mL
Value Observed: 2780

----------
# Assay Name: Pharmacokinetic studies in rats (LPV plasma levels by LC-MS/MS)
# Assay type: in vivo
# Condition Set: male, Sprague-Dawley, rat, plasma, oral, 10 mg/kg, rats, oral; read-out: absolute bioavailability compared to LPV:RTV 4:1 i.v.
Readout Type: bioavailability (%)

Smiles Structure: Cc1cccc(C)c1OCC(=O)N[C@@H](Cc1ccccc1)[C@@H](O)C[C@H](Cc1ccccc1)NC(=O)[C@H](C(C)C)N1CCCNC1=O
Value Observed: 5

----------
# Assay Name: Pharmacokinetic studies in rats (LPV plasma levels by LC-MS/MS)
# Assay type: in vivo
# Condition Set: male, Sprague-Dawley, rat, oral, 10 mg/kg, read-out: absolute bioavailability compared to i.v. LPV solution

Smiles Structure: Cc1cccc(C)c1OCC(=O)N[C@@H](Cc1ccccc1)[C@@H](O)C[C@H](Cc1ccccc1)NC(=O)[C@H](C(C)C)N1CCCNC1=O
bioavailability (%): 24

----------
# Assay Name: Pharmacokinetic studies in rats (LPV plasma levels by LC-MS/MS)
# Type: in vivo
# Condition Set: male, Sprague-Dawley, rat, plasma; rats, oral, 10 mg/kg LPV

Smiles Structure: Cc1cccc(C)c1OCC(=O)N[C@@H](Cc1ccccc1)[C@@H](O)C[C@H](Cc1ccccc1)NC(=O)[C@H](C(C)C)N1CCCNC1=O
AUC / µg·h/mL: 1.91

----------
# Assay Name: Pharmacokinetic studies in rats (LPV plasma levels by LC-MS/MS)
# Format: in vivo
# Condition Set: male, Sprague-Dawley, rat, plasma, iv; rats, 10 mg/kg LPV

Smiles Structure: Cc1cccc(C)c1OCC(=O)N[C@@H](Cc1ccccc1)[C@@H](O)C[C@H](Cc1ccccc1)NC(=O)[C@H](C(C)C)N1CCCNC1=O
AUC: 8000 ng·h/mL
